# test-method-notes: in vivo
# Design: species or system mice
# measurement-setup: naked (nude), mouse, iv, 100 uCi, total radioactivity, % ID/g Bladder
Non-standard residues stand in square brackets, D forms with d. Residues, ends and D or L forms follow the SMILES beside them. *: point of attachment. DOTA = O=C(O)CN1CCN(CC(=O)O)CCN(CC(=O)*)CCN(CC(=O)O)CC1; Aib = CC(C)(N)C(=O)O; AEA = NCCOCC(=O)O
For each of the molecules below, state its tissue uptake at 1 h.
Just the number please, in %ID/g, no unit attached.

Consider CC[C@H](C)[C@H](NC(=O)[C@@H](NC(=O)[C@H](CC(=O)O)NC(=O)[C@H](CC(N)=O)NC(=O)COCCNC(=O)CN1CCN(CC(=O)O)CCN(CC(=O)O)CCN(CC(=O)O)CC1)C(C)C)C(=O)N[C@@H](CC(N)=O)C(=O)O [^68Ga-TM13, metal not drawn] ({DOTA-AEA}-NDVIN-OH) . Its measured tissue uptake at 1 h is 15.6

# molecule CC[C@H](C)[C@H](NC(=O)C(C)(C)NC(=O)[C@H](CC(=O)O)NC(=O)[C@H](CC(N)=O)NC(=O)CN1CCN(CC(=O)O)CCN(CC(=O)O)CCN(CC(=O)O)CC1)C(=O)N[C@@H](CC(N)=O)C(=O)O [^68Ga-TM11, metal not drawn] ({DOTA}-ND[Aib]IN-OH) ; its tissue uptake at 1 h = 4.7

---

# test-method-notes: in vivo
# Set-up: species or system mice
# measurement-setup: M-NSG, mouse, iv, 100 uCi, total radioactivity, % ID/g Tumor
Non-standard residues stand in square brackets, D forms with d. Residues, ends and D or L forms follow the SMILES beside them. *: point of attachment. DOTA = O=C(O)CN1CCN(CC(=O)O)CCN(CC(=O)*)CCN(CC(=O)O)CC1; PEG4 = NCCOCCOCCOCCOCCC(=O)O; Aib = CC(C)(N)C(=O)O; AEA = NCCOCC(=O)O
property-label: tissue uptake at 1 h (%ID/g)
# unit: %ID/g | format: bare number

In plain terms, CC[C@H](C)[C@H](NC(=O)C(C)(C)NC(=O)[C@H](CC(=O)O)NC(=O)[C@H](CC(N)=O)NC(=O)CN1CCN(CC(=O)O)CCN(CC(=O)O)CCN(CC(=O)O)CC1)C(=O)N[C@@H](CC(N)=O)C(=O)O [^68Ga-TM11, metal not drawn] ({DOTA}-ND[Aib]IN-OH) has a documented tissue uptake at 1 h of 0.94

// field: tissue uptake at 1 h; key: CC[C@H](C)[C@H](NC(=O)[C@@H](NC(=O)[C@H](CC(=O)O)NC(=O)[C@H](CC(N)=O)NC(=O)[C@H](CC(=O)O)NC(=O)CNC(=O)[C@H](CCCNC(=N)N)NC(=O)CCOCCOCCOCCOCCNC(=O)CN1CCN(CC(=O)O)CCN(CC(=O)O)CCN(CC(=O)O)CC1)C(C)C)C(=O)N[C@@H](CC(N)=O)C(=O)O [^68Ga-TM7, metal not drawn] ({DOTA-PEG4}-RGDNDVIN-OH) ; value = 0.75

Entry CC[C@H](C)[C@H](NC(=O)[C@@H](NC(=O)[C@H](CC(=O)O)NC(=O)[C@H](CC(N)=O)NC(=O)CCOCCOCCOCCOCCNC(=O)CN1CCN(CC(=O)O)CCN(CC(=O)O)CCN(CC(=O)O)CC1)C(C)C)C(=O)N[C@@H](CC(N)=O)C(=O)O [^68Ga-TM5, metal not drawn] ({DOTA-PEG4}-NDVIN-OH) — recorded tissue uptake at 1 h = 1.1

The reported tissue uptake at 1 h of the molecule CC[C@H](C)[C@H](NC(=O)[C@@H](NC(=O)[C@H](CC(=O)O)NC(=O)[C@H](CC(N)=O)NC(=O)COCCNC(=O)CN1CCN(CC(=O)O)CCN(CC(=O)O)CCN(CC(=O)O)CC1)C(C)C)C(=O)N[C@@H](CC(N)=O)C(=O)O [^68Ga-TM13, metal not drawn] ({DOTA-AEA}-NDVIN-OH) was 0.97

tissue uptake at 1 h reported for this molecule CC[C@H](C)[C@H](NC(=O)[C@@H](NC(=O)[C@H](CC(=O)O)NC(=O)[C@H](CC(N)=O)NC(=O)CN1CCN(CC(=O)O)CCN(CC(=O)O)CCN(CC(=O)O)CC1)C(C)C)C(=O)N[C@@H](CC(N)=O)C(=O)O [^68Ga-TM4, ^68Ga-DOTA-Asn-Asp-Val-Ile-Asn-OH, metal not drawn] ({DOTA}-NDVIN-OH) : 1.4

---

Please provide measured tissue uptake at 1 h for the entries that follow.
# test-method-notes: in vivo
# Design: species or system mice
# measurement-setup: M-NSG, mouse, iv, 100 uCi, total radioactivity, % ID/g Intestine
Non-standard residues stand in square brackets, D forms with d. Residues, ends and D or L forms follow the SMILES beside them. *: point of attachment. DOTA = O=C(O)CN1CCN(CC(=O)O)CCN(CC(=O)*)CCN(CC(=O)O)CC1; PEG4 = NCCOCCOCCOCCOCCC(=O)O; Aib = CC(C)(N)C(=O)O; AEA = NCCOCC(=O)O
Provide only the numeric value, understood in %ID/g.

// tissue uptake at 1 h value for CC[C@H](C)[C@H](NC(=O)[C@@H](NC(=O)[C@H](CC(=O)O)NC(=O)[C@H](CC(N)=O)NC(=O)CCOCCOCCOCCOCCNC(=O)CN1CCN(CC(=O)O)CCN(CC(=O)O)CCN(CC(=O)O)CC1)C(C)C)C(=O)N[C@@H](CC(N)=O)C(=O)O [^68Ga-TM5, metal not drawn] ({DOTA-PEG4}-NDVIN-OH) : 0.57

Reported tissue uptake at 1 h of CC[C@H](C)[C@H](NC(=O)C(C)(C)NC(=O)[C@H](CC(=O)O)NC(=O)[C@H](CC(N)=O)NC(=O)CN1CCN(CC(=O)O)CCN(CC(=O)O)CCN(CC(=O)O)CC1)C(=O)N[C@@H](CC(N)=O)C(=O)O [^68Ga-TM11, metal not drawn] ({DOTA}-ND[Aib]IN-OH) : 0.5

# tissue uptake at 1 h (compound: CC[C@H](C)[C@H](NC(=O)[C@@H](NC(=O)[C@H](CC(=O)O)NC(=O)[C@H](CC(N)=O)NC(=O)CN1CCN(CC(=O)O)CCN(CC(=O)O)CCN(CC(=O)O)CC1)C(C)C)C(=O)N[C@@H](CC(N)=O)C(=O)O [^68Ga-TM4, ^68Ga-DOTA-Asn-Asp-Val-Ile-Asn-OH, metal not drawn] ({DOTA}-NDVIN-OH) ) is 0.56

Measured tissue uptake at 1 h of CC[C@H](C)[C@H](NC(=O)[C@@H](NC(=O)[C@H](CC(=O)O)NC(=O)[C@H](CC(N)=O)NC(=O)[C@H](CC(=O)O)NC(=O)CNC(=O)[C@H](CCCNC(=N)N)NC(=O)CCOCCOCCOCCOCCNC(=O)CN1CCN(CC(=O)O)CCN(CC(=O)O)CCN(CC(=O)O)CC1)C(C)C)C(=O)N[C@@H](CC(N)=O)C(=O)O [^68Ga-TM7, metal not drawn] ({DOTA-PEG4}-RGDNDVIN-OH) : 0.45

Field tissue uptake at 1 h (entry CC[C@H](C)[C@H](NC(=O)[C@@H](NC(=O)[C@H](CC(=O)O)NC(=O)[C@H](CC(N)=O)NC(=O)COCCNC(=O)CN1CCN(CC(=O)O)CCN(CC(=O)O)CCN(CC(=O)O)CC1)C(C)C)C(=O)N[C@@H](CC(N)=O)C(=O)O [^68Ga-TM13, metal not drawn] ({DOTA-AEA}-NDVIN-OH) ) reads 0.6

---

# test-method-notes: in vivo
# Set-up: species or system mice
# measurement-setup: naked (nude), mouse, iv, 100 uCi, total radioactivity, % ID/g Heart
Non-standard residues stand in square brackets, D forms with d. Residues, ends and D or L forms follow the SMILES beside them. *: point of attachment. DOTA = O=C(O)CN1CCN(CC(=O)O)CCN(CC(=O)*)CCN(CC(=O)O)CC1; Aib = CC(C)(N)C(=O)O; AEA = NCCOCC(=O)O
property-label: tissue uptake at 1 h (%ID/g)
Answer with a number only, understood to be in %ID/g.

Lab note: CC[C@H](C)[C@H](NC(=O)[C@@H](NC(=O)[C@H](CC(=O)O)NC(=O)[C@H](CC(N)=O)NC(=O)COCCNC(=O)CN1CCN(CC(=O)O)CCN(CC(=O)O)CCN(CC(=O)O)CC1)C(C)C)C(=O)N[C@@H](CC(N)=O)C(=O)O [^68Ga-TM13, metal not drawn] ({DOTA-AEA}-NDVIN-OH) gave tissue uptake at 1 h of 0.11

tissue uptake at 1 h reading for CC[C@H](C)[C@H](NC(=O)C(C)(C)NC(=O)[C@H](CC(=O)O)NC(=O)[C@H](CC(N)=O)NC(=O)CN1CCN(CC(=O)O)CCN(CC(=O)O)CCN(CC(=O)O)CC1)C(=O)N[C@@H](CC(N)=O)C(=O)O [^68Ga-TM11, metal not drawn] ({DOTA}-ND[Aib]IN-OH) : 0.25
